target: Leucine-rich repeat serine/threonine-protein kinase 2 (Homo sapiens); conditions: at 0.1 µM;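 also: reported values are averaged percent inhibition of LRRK2 kinase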
MEASURE_NAME: inhibition (%)
Answers are plain numbers, in %.

Exercise: For the compound shown here, `COc1cccc(-n2ncc3c(N/N=C/c4ccc(F)cc4)ncnc32)c1` , give the reported inhibition.
Key: 1.96

Exercise: For the compound shown here, `CCn1c(-c2nonc2N)nc2c(C#CC(C)(C)O)nc(OC[C@H](N)c3ccccc3)cc21` , give the reported inhibition.
Key: 7.19

Exercise: For the compound shown here, `COc1cc2c(cc1Nc1nc(Nc3ccsc3C(N)=O)c3cc[nH]c3n1)N(C(=O)CN(C)C)CCC2(C)C` , give the reported inhibition.
Key: 90.7

Exercise: For the compound shown here, `CS(=O)(=O)CCNCc1coc(-c2ccc3ncnc(Nc4ccc(OCc5ccccc5)cc4)c3c2)c1` , give the reported inhibition.
Key: 0.86

Exercise: For the compound shown here, `COc1ccc(-c2nn3ncccc3c2-c2ccnc(Nc3ccc4c(c3)OCCO4)n2)cc1` , give the reported inhibition.
Key: 7.1

Could you report inhibition for every entry in the following list?
1. O=S(=O)(CCNCc1ccc(-c2ccc3ncnc(Nc4ccc(OCc5cccc(F)c5)c(Cl)c4)c3c2)o1)c1ccccc1
2. CNC(=O)c1cccc(C#Cc2cncnc2Nc2ccc(OCc3cccc(F)c3)c(Cl)c2)c1

Key:
1: 4.97; 2: 0.02

* * *

So I've got a bunch of molecules here, and I need their inhibition values.
biological target: Tyrosine-protein kinase Tec (Homo sapiens) (UniProt P42680); settings: at 0.1 µM
Sequence (P42680 whole entry): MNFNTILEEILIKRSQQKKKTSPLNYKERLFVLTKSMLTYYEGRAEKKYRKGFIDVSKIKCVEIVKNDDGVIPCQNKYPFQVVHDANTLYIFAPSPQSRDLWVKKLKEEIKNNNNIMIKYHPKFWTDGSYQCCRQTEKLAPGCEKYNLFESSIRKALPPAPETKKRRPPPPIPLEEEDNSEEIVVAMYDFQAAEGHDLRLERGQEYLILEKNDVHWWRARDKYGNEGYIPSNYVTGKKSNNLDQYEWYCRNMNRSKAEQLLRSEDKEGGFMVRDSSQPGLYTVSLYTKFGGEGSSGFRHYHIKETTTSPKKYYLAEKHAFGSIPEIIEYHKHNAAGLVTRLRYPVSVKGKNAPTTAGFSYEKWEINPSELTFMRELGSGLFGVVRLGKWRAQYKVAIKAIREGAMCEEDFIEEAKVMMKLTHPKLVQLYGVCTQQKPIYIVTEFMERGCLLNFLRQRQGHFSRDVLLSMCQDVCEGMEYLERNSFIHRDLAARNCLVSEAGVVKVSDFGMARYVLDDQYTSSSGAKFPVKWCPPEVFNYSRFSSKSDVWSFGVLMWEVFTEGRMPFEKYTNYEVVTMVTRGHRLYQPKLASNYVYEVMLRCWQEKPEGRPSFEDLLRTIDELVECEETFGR
Description: GSK_PKIS: TEC mean inhibition at 0.1 uM [Nanosyn]
One number for each entry, in %.

Example cases with answers are listed next.
Exercise: For the molecule shown here, `COc1ccc(-c2oc3ncnc(N)c3c2-c2ccc(NC(=O)Nc3cc(C(F)(F)F)ccc3F)cc2)cc1` , give the reported inhibition.
Key: 5.43

Exercise: For the molecule shown here, `Cc1cccc2c1NC(=O)/C2=N\Nc1ccc(S(N)(=O)=O)cc1` , give the reported inhibition.
Key: 5.22

Could you report inhibition for every entry in the following list?
1. CCn1c(-c2nonc2N)nc2cnc(Oc3cccc(NC(=O)c4ccc(N(C)C)cc4)c3)cc21
2. COc1ccc(CNC(=O)c2ccc(-c3cc(-c4nnc(C)o4)ccc3C)cc2)cc1

Key:
[3.07, 2.72]

* * *

target: Ribosomal protein S6 kinase alpha-4 (Homo sapiens) (UniProt O75676); settings: at 0.1 µM;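 also: values are mean inhibition of MSK2, from GSK PKIS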
Sequence (O75676 whole entry, looked up): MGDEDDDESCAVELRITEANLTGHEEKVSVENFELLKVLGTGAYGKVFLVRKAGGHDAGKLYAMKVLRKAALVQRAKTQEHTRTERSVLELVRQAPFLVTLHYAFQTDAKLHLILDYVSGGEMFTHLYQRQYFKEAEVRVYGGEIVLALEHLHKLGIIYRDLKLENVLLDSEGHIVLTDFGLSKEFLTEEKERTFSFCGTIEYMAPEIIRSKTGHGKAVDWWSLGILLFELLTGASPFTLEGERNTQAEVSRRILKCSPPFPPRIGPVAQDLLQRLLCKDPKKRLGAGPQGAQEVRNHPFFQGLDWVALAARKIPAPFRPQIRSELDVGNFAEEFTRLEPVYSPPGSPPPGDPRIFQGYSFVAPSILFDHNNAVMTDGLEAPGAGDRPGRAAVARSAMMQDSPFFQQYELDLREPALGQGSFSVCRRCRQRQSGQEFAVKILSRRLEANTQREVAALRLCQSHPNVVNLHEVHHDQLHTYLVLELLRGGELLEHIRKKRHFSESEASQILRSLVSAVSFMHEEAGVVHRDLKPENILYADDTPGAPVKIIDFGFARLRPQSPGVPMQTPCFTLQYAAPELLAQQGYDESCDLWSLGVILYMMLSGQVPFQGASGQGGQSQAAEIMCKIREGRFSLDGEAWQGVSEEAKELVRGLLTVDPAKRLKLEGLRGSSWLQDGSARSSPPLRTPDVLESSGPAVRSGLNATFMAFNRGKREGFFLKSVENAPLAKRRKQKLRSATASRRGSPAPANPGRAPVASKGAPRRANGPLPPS
So I've got a bunch of compounds here, and I need their inhibition values.
Answers are plain numbers, in %.

Exercise: For the compound shown here, `O=C(Nc1n[nH]c2cc(-c3ccc(F)cc3)ccc12)C1CC1` , give the reported inhibition.
Key: 6.38

Could you report inhibition for every entry in the following list?
1. Cc1ccc(O)cc1Nc1ccnc2cc(-c3ccccn3)ccc12
2. [O-][S+]1CCN(Cc2ccc(-c3ccc4ncnc(Nc5ccc(OCc6cccc(F)c6)c(Cl)c5)c4c3)o2)CC1

Key:
1: 0.94; 2: 3.38

* * *

target: Vascular endothelial growth factor receptor 2 (Homo sapiens) (UniProt P35968); conditions: at 0.1 µM
Sequence (P35968 whole entry): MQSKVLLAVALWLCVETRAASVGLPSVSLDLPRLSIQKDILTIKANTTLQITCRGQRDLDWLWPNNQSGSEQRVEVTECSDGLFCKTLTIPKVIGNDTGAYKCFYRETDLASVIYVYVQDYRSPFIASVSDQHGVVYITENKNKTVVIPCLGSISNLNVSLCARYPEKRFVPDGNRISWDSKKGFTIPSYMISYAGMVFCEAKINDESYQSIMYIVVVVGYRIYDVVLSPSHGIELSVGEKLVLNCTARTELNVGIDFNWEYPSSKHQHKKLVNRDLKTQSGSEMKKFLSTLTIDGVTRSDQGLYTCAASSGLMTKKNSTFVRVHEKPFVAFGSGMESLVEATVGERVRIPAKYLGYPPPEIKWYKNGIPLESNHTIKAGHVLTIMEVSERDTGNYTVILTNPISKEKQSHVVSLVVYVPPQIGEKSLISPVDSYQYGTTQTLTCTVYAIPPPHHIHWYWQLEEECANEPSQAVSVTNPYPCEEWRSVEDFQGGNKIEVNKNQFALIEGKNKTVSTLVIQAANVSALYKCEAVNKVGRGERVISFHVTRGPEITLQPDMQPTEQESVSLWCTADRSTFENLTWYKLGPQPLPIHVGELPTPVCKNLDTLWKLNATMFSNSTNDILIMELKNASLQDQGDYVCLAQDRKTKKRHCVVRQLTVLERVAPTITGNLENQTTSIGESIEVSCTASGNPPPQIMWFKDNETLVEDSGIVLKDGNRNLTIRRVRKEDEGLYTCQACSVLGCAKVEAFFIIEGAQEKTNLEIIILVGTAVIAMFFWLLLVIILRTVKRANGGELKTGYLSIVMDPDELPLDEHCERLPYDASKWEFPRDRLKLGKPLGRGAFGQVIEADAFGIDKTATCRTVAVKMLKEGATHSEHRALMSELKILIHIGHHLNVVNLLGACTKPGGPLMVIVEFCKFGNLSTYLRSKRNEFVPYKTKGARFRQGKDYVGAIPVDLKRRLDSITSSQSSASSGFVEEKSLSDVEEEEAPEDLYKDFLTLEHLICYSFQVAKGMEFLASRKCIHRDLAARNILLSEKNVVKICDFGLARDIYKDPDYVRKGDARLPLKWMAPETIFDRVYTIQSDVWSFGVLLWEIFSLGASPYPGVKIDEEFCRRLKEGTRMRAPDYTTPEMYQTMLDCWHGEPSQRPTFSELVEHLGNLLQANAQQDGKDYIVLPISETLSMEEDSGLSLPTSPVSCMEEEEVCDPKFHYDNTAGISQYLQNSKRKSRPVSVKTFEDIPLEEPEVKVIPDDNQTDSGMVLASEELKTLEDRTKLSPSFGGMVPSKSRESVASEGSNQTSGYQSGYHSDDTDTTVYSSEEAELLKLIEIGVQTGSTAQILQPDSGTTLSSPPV
Description: GSK_PKIS: KDR mean inhibition at 0.1 uM [Nanosyn]
Binary classification by inhibition, with 5% as an inclusive lower bound for met; all other cases are not met.

Worked set:
Exercise: State whether the measured inhibition reaches 5%, counting equality as reaching it, for `COc1ccc(CNC(=O)c2ccc(-c3cc(-c4nnc(C)o4)ccc3C)cc2)cc1`
Key: met

Exercise: State whether the measured inhibition reaches 5%, counting equality as reaching it, for `CC(C)(CO)CNC(=O)c1ccc2c(c1)/C(=N/Nc1ccc(S(N)(=O)=O)cc1)C(=O)N2`
Key: met

Exercise: State whether the measured inhibition reaches 5%, counting equality as reaching it, for `CCn1c(-c2nonc2N)nc2cnc(Oc3cccc(NC(=O)c4ccc(N(C)C)cc4)c3)cc21`
Key: not met

Others:
Exercise: State whether the measured inhibition reaches 5%, counting equality as reaching it, for `FC(F)(F)c1cccc(-c2nn3ncccc3c2-c2ccnc(Nc3ccc4c(c3)OCCO4)n2)c1`
Key: met

Exercise: State whether the measured inhibition reaches 5%, counting equality as reaching it, for CC1=C(C(=O)Nc2cc(Cl)c3[nH]ncc3c2)C(c2ccc(C(F)(F)F)cc2)CC(=O)N1 (stereo not given)
Key: not met
